Parameter pIC50, tested on MMP-10 (Homo sapiens, UniProt P09238), listed per item.
Sequence (P09238 99-476): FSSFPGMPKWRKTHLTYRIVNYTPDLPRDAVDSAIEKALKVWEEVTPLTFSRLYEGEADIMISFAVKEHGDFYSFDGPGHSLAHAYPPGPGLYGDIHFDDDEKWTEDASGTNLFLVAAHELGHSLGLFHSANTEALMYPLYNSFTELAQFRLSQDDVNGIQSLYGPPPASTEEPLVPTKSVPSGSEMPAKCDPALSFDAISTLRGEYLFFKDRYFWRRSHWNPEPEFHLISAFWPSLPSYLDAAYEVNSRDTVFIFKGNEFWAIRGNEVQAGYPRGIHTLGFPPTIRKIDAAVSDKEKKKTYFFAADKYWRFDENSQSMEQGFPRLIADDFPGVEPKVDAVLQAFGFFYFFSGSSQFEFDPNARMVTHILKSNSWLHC
The scale used: pIC50 is minus the common logarithm of the concentration in molar units.

Any idea what pIC50 was measured for O=C(CC(CCn1nnc2ccccc2c1=O)C(=O)O)c1noc2cc(OCc3cccnc3)ccc12 (racemic) [Example 148] ?
6.70

Ok, now O=C(CC(CCn1nnc2ccccc2c1=O)C(=O)O)c1cc2cc(OCc3ccc(C(F)(F)F)cc3)ccc2o1 (racemic) [Example 44]
4.54

Also CCCCCCCOc1ccc2cc(C(=O)CC(CCn3nnc4ccccc4c3=O)C(=O)O)oc2c1 (single isomer, unassigned; (+)) [Example 69] , if possible.
4.55

Now the same for O=C(CC(CCn1nnc2ccc(C(F)(F)F)cc2c1=O)C(=O)O)c1noc2cc(OCc3ccccc3)ccc12 (racemic) [Example 154]
5.48

// repeat for O=C(CC(CCn1nnc2ccccc2c1=O)C(=O)O)c1coc2cc(OCC3CCCCC3)ccc12 (single isomer, unassigned; (+)) [Example 82] and report
5.17

Next up: O=C(CC(CCn1nnc2ccccc2c1=O)C(=O)O)c1cc2ccc(OCC3CC3)cc2s1 (single isomer, unassigned; (+)) [Example 112]
5.60

Next compound up: O=C(CC(CCn1nnc2ccccc2c1=O)C(=O)O)c1cc2cc(OCCc3ccccc3Cl)ccc2o1 (racemic) [Example 1]
4.55

Same thing, different compound: O=C(C[C@H](CCn1nnc2ccccc2c1=O)C(=O)O)c1noc2cc(OCC3CCOCC3)ccc12 (single isomer, unassigned; enantiomer 2) [Example 135]
5.05

Please answer likewise for O=C(CC(CCn1nnc2ccccc2c1=O)C(=O)O)c1noc2cc(OCc3ccccc3)ccc12 (racemic) [Example 145]
5.00

And O=C(CC(CCn1nnc2ccccc2c1=O)C(=O)O)c1noc2cc(OCc3ccc(F)cc3)ccc12 (racemic) [Example 136] ?
4.92

Then what about the compound O=C(CC(CCn1nnc2ccccc2c1=O)C(=O)O)c1cc2cc(OCC3CCOCC3)ccc2o1 (racemic) [Example 5] ?
4.47

Then this compound: O=C(O)[C@@H]1[C@@H](Cn2nnc3ccc(C(F)(F)F)cc3c2=O)CC[C@H]1C(=O)c1cc2cc(OCCc3ccccc3)ccc2o1 (single isomer, unassigned; enantiomer 2) [Example 159]
6.47

Lookup CCCCCOc1ccc2cc(C(=O)CC(CCn3nnc4ccccc4c3=O)C(=O)O)sc2c1 (racemic) [Example 118]
5.00

Moving on to Cc1cccc(COc2ccc3oc(C(=O)CC(CCn4nnc5ccccc5c4=O)C(=O)O)cc3c2)c1 (racemic) [Example 51]
4.44

Continue with CCCCCCOc1ccc2c(C(=O)CC(CCn3nnc4ccccc4c3=O)C(=O)O)coc2c1 (single isomer, unassigned; (+)) [Example 100]
4.96

Ok, now O=C(CC(CCn1nnc2ccccc2c1=O)C(=O)O)c1cc2cc(OCCc3ccc(Cl)cc3)ccc2o1 (racemic) [Example 2]
4.80

====

Target: UniProt P45452
Consider the following molecules; for each one, report its pIC50.
# pIC50: negative log10 of molar concentration; output just the value

Quick one: pIC50 for O=C(CC(CCn1nnc2ccccc2c1=O)C(=O)O)c1cc2ccc(OCC3CC3)cc2s1 (single isomer, unassigned; (+)) ?
5.89

Now consider NC(=O)c1cccc(COc2ccc3oc(C(=O)CC(CCn4nnc5ccccc5c4=O)C(=O)O)cc3c2)c1 (single isomer, unassigned; (+)) and answer again.
5.80

Repeat for the following molecule: CCCCCCCOc1ccc2oc(C(=O)CC(CCn3nnc4ccccc4c3=O)C(=O)O)cc2c1 (racemic)
5.29

Query O=C(CC(CCn1nnc2ccccc2c1=O)C(=O)O)c1coc2cc(OCCC3CCOCC3)ccc12 (racemic) next
6.60

And what about the molecule O=C(CC(CCn1nnc2ccccc2c1=O)C(=O)O)c1noc2cc(OCC3CC3)ccc12 (racemic) ?
5.62

Cc1cccc(COc2ccc3oc(C(=O)CC(CCn4nnc5ccccc5c4=O)C(=O)O)cc3c2)c1 (racemic) , same question.
4.96

And for O=C(CC(CCn1nnc2ccccc2c1=O)C(=O)O)c1cc2ccc(OCCc3ccccc3)cc2s1 (racemic) ?
6.60

Now the same for CCCCCOc1ccc2c(C(=O)CC(CCn3nnc4ccccc4c3=O)C(=O)O)noc2c1 (racemic)
6.48

What would you report for CCCCCOc1ccc2c(C(=O)CC(CCn3nnc4ccccc4c3=O)C(=O)O)coc2c1 (single isomer, unassigned) [Example 91] ?
6.43

Now try CCCCCCCOc1ccc2c(C(=O)CC(CCn3nnc4ccccc4c3=O)C(=O)O)coc2c1 (racemic) .
5.96

What about O=C(CC(CCn1nnc2ccccc2c1=O)C(=O)O)c1cc2cc(OCc3ccc(F)cc3)ccc2o1 (single isomer, unassigned; (+)) ?
5.28

// query: O=C(CC(CCn1nnc2ccc(C(F)(F)F)cc2c1=O)C(=O)O)c1noc2cc(OCc3ccccc3)ccc12 (racemic)
5.64

Again, but for O=C(CC(CCn1nnc2ccccc2c1=O)C(=O)O)c1noc2cc(OCc3ccccc3)ccc12 (racemic)
5.82

====

I'd be grateful if you could share measured IC50 for these entries.
Biological target: human macrophage elastase (HME/hMMP-12) (Homo sapiens, UniProt P39900)
Sequence (P39900 106-470): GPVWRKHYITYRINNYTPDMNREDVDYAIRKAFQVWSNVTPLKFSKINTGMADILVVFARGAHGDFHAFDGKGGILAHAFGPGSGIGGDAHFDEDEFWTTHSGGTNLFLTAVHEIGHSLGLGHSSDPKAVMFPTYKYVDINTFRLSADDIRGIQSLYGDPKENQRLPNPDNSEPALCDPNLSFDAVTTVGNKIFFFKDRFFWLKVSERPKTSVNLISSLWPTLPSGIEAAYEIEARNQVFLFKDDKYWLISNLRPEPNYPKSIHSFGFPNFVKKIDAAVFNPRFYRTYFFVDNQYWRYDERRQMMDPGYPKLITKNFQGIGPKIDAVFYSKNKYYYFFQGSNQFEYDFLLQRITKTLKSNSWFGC
Assay: In vitro HME inhibition test (standard or high-sensitivity)
Conditions: in some cases mean values, rounded to two significant figures
Number in nM, nothing else.

So what does the record say about IC50 for N#CCCCOc1ccc2oc(C(=O)CC(CCn3nnc4ccccc4c3=O)C(=O)O)cc2c1 (racemic) ?
4.8

Repeat for the following compound: O=C(CC(CCn1nnc2ccccc2c1=O)C(=O)O)c1cc2cc(OCc3ccc(Cl)c(Cl)c3)ccc2o1 (single isomer, unassigned; (+)) [Example 27]
0.19

Further, for O=C(CC(CCn1nnc2ccccc2c1=O)C(=O)O)c1cc2ccc(OCC3CC3)cc2s1 (racemic) [Example 111] ?
3.3

Also check O=C(CC(CCn1nnc2ccccc2c1=O)C(=O)O)c1cc2cc(OCc3ccc(F)cc3)ccc2o1 (racemic) [Example 22]
2.5

Same read-out for O=C(CC(CCn1nnc2ccccc2c1=O)C(=O)O)c1cc2cc(OCCc3ccc(Cl)cc3)ccc2o1 (racemic) ?
2.6

Please answer likewise for O=C(CC(CCn1nnc2ccccc2c1=O)C(=O)O)c1cc2cc(OCCC3CCCC3)ccc2o1 (racemic)
2.8

And what about the compound O=C(CC(CCn1nnc2ccccc2c1=O)C(=O)O)c1noc2cc(OCc3ccc(Cl)cc3)ccc12 (racemic) ?
1.7

====

Test system: rat hepatocytes
Test: Hepatocyte assay for determination of metabolic stability
Assay type: in vitro ADME
Conditions: after incubation with rat hepatocytes
Task for the reader: assign each of the following compounds its reported CLblood (calculated blood clearance, well-stirred).
Reply numerically in mL/min/kg, unit not repeated.

Fill in the recorded CLblood (calculated blood clearance, well-stirred) for this compound, with rat hepatocytes as test system: O=C(CC(CCn1nnc2ccccc2c1=O)C(=O)O)c1cc2cc(OCC3CCOCC3)ccc2o1 (racemic)
27

For CCCCCOc1ccc2c(C(=O)CC(CCn3nnc4ccccc4c3=O)C(=O)O)noc2c1 (racemic) then?
24.8

Same question for O=C(CC(CCn1nnc2ccccc2c1=O)C(=O)O)c1noc2cc(OCC3CCOCC3)ccc12 (racemic) please.
13.3

Also O=C(CC(CCn1nnc2ccccc2c1=O)C(=O)O)c1cc2ccc(OCCc3ccccc3)cc2o1 (racemic) , if possible.
23.2

Repeat for the following compound: O=C(CC(CCn1nnc2ccccc2c1=O)C(=O)O)c1noc2cc(OCc3ccccc3)ccc12 (racemic)
25.5

Same question, O=C(CC(CCn1nnc2ccccc2c1=O)C(=O)O)c1coc2cc(OCc3ccc(Cl)c(Cl)c3)ccc12 (single isomer, unassigned) this time
25.8

====

Target: human macrophage elastase (HME/hMMP-12) (Homo sapiens)
Experiment: In vitro HME inhibition test (standard or high-sensitivity)
Conditions: in some cases mean values, rounded to two significant figures
pIC50: −log10 of the molar value.
We use 9 as the dividing line for pIC50: on or above the line is TRUE, below is FALSE.

Kindly determine if pIC50 recorded for CCCCCOc1ccc2c(C(=O)CC(CCn3nnc4ccccc4c3=O)C(=O)O)coc2c1 (single isomer, unassigned) [Example 90] is above or exactly 9.
FALSE

Next entry: O=C(CC(CCn1nnc2ccccc2c1=O)C(=O)O)c1cc2cc(OCC3CCCC3)ccc2o1 (single isomer, unassigned; enantiomer 1) [Example 17]
FALSE

// repeat for O=C(O)[C@H]1[C@H](Cn2nnc3ccc(C(F)(F)F)cc3c2=O)CC[C@@H]1C(=O)c1cc2cc(OCCc3ccccc3)ccc2o1 (racemic) and report
TRUE

Item: O=C(CC(CCn1nnc2ccccc2c1=O)C(=O)O)c1cc2ccc(OCCc3ccccc3)cc2s1 (racemic)
TRUE

// same read-out, input: O=C(CC(CCn1nnc2ccccc2c1=O)C(=O)O)c1cc2cc(OCC3CCCC3)ccc2o1 (single isomer, unassigned; enantiomer 2) [Example 18]
FALSE

And the next one, CCCOc1ccc2cc(C(=O)CC(CCn3nnc4ccccc4c3=O)C(=O)O)oc2c1 (racemic) [Example 58] ?
FALSE

Repeat with O=C(O)[C@@H]1[C@@H](Cn2nnc3ccc(C(F)(F)F)cc3c2=O)CC[C@H]1C(=O)c1cc2cc(OCCc3ccccc3)ccc2o1 (single isomer, unassigned; enantiomer 1) [Example 158]
FALSE

Next molecule: O=C(CC(CCn1nnc2ccccc2c1=O)C(=O)O)c1cc2cc(OCc3ccc(F)cc3)ccc2o1 (single isomer, unassigned; (-)) [Example 24]
FALSE

Again, but for O=C(C[C@H](CCn1nnc2ccccc2c1=O)C(=O)O)c1noc2cc(OCC3CCOCC3)ccc12 (single isomer, unassigned; enantiomer 2)
TRUE

Would you mind doing CCCCCCOc1ccc2c(C(=O)CC(CCn3nnc4ccccc4c3=O)C(=O)O)coc2c1 (single isomer, unassigned; (-)) [Example 99] as well?
FALSE

Follow-up entry: CCCCOc1ccc2c(C(=O)CC(CCn3nnc4ccccc4c3=O)C(=O)O)coc2c1 (single isomer, unassigned; (-)) [Example 109]
FALSE

Same read-out for O=C(CC(CCn1nnc2ccccc2c1=O)C(=O)O)c1cc2ccc(OCC3CCC3)cc2s1 (racemic) ?
FALSE

Do the same for O=C(O)[C@@H]1[C@@H](Cn2nnc3ccc(C(F)(F)F)cc3c2=O)CC[C@H]1C(=O)c1cc2cc(OCCc3ccccc3)ccc2o1 (single isomer, unassigned; enantiomer 2) [Example 159] please
TRUE

Another molecule: O=C(CC(CCn1nnc2ccccc2c1=O)C(=O)O)c1cc2ccc(OCCCC3CCCCC3)cc2o1 (racemic)
FALSE

Please do the same for O=C(CC(CCn1nnc2ccccc2c1=O)C(=O)O)c1coc2cc(OCCC3CCCC3)ccc12 (racemic) as well.
TRUE

Then CCCCOc1ccc2cc(C(=O)CC(CCn3nnc4ccccc4c3=O)C(=O)O)oc2c1 (single isomer, unassigned; (-)) [Example 62] ?
FALSE

Then this molecule: CCCCCCOc1ccc2c(C(=O)CC(CCn3nnc4ccccc4c3=O)C(=O)O)coc2c1 (single isomer, unassigned; (+)) [Example 100]
TRUE

Entry source: patent US20170121315A1
